system: CP291; test: qHTS profiling for inhibitors of Plasmodium falciparum proliferation (AID 504749); also: nearly all actives have a fitted effect of over 60% in size; details: P. falciparum in erythrocytes, SYBR Green DNA, 72 h; series mostly up to 28.7 µM
Results filed as inconclusive are left out. Activity calls are given as the source filed them. Calls follow the shape of the dose curve; as a rule, active = well fitted inhibition curve with a large enough effect; inconclusive = small, poorly fitted or top-dose-only effect; inactive = flat fitted curve, though single readings scatter.
Classes to choose from: true (1) for active, false (0) for inactive

Answered cases to consult:
- compound: "NCC[C@H](O)C(=O)N[C@H]1C[C@@H](N)[C@@H](O[C@H]2O[C@@H](CN)[C@@H](O)[C@@H](O)[C@@H]2N)[C@@H](O[C@H]2O[C@@H](CO)[C@@H](O)[C@@H]2O)[C@@H]1O"
  assigned category: "false (0)"
- compound: "C[C@@H]1O[C@H](O[C@@H]2C=C3CC[C@H]4[C@@H](CC[C@]5(C)[C@@H](c6ccc(=O)oc6)CC[C@]45O)[C@@]3(C)CC2)[C@@H](O)[C@H](O)[C@@H]1O"
  assigned category: "false (0)"
- compound: "CC(=O)OCC(=O)[C@@H]1CC[C@H]2[C@H]3CC[C@H]4C[C@@H](O)CC[C@]4(C)[C@@H]3C(=O)C[C@@]12C"
  assigned category: "false (0)"
- compound: "CC(C)N(CC[C@@](C(N)=O)(c1ccccc1)c1ccccn1)C(C)C"
  assigned category: "false (0)"
- compound: "C[C@H]1CN(C2CCC(C#N)(c3ccc(F)cc3)CC2)CC[C@@]1(C(=O)O)c1ccccc1 (some centres undefined)"
  assigned category: "false (0)"
- compound: "O=[As]O[As]=O (centres undefined)"
  assigned category: "true (1)"
- compound: "COc1cc2c(cc1OC)[C@@]13CCN4CC5=CCOC6CC(=O)N2C1[C@H]6[C@@H]5C[C@@H]43 (some centres undefined)"
  assigned category: "false (0)"
- compound: "C[C@@]12CC[C@H]3[C@@H](CC[C@@H]4C[C@H]5S[C@H]5C[C@]43C)[C@H]1CC[C@H]2O"
  assigned category: "false (0)"
- compound: "CC(C)(O)C1C2OC(=O)C1[C@]1(O)C[C@H]3O[C@]34C(=O)O[C@H]2[C@]14C (some centres undefined) (tested in a mixture with another compound)"
  assigned category: "false (0)"
- compound: "CC(=O)O[C@H]1CC[C@@]2(C)C(=CC[C@@H]3[C@H]2CC[C@]2(C)C(=O)CC[C@H]32)C1"
  assigned category: "false (0)"

stdin: Please state the recorded outcome for this compound: C[N+]1(C)[C@@H]2CC[C@H]1CC(OC(=O)[C@@H](CO)c1ccccc1)C2 (some centres undefined)
stdout: false (0)

stdin: Lookup "CC1=C2[C@@H]3OC(=O)[C@@H](C)[C@@H]3CC[C@]2(C)C=CC1=O"
stdout: false (0)

stdin: Lookup C[N+]1([O-])[C@@H]2CC[C@H]1CC(OC(=O)[C@@H](CO)c1ccccc1)C2 (some centres undefined)
stdout: false (0)

stdin: Lookup "CCN[C@]1(c2cccs2)CCCCC1=O"
stdout: false (0)

stdin: Lookup "Clc1ccc([C@@H](OCCN2CCCCC2)c2ccccc2)cc1"
stdout: false (0)

stdin: Lookup "N[C@H]1C[C@H]1c1ccccc1"
stdout: false (0)

stdin: Lookup Oc1ccc2c3c1O[C@H]1[C@@H](O)CC[C@@]4(O)C(C2)N(CC2CCC2)CCC314 (some centres undefined)
stdout: false (0)

stdin: Lookup "CNC[C@H](O)c1ccc(O)cc1"
stdout: false (0)

stdin: Lookup "O=c1ccc2cc(O[C@H]3O[C@@H](CO)[C@@H](O)[C@@H](O)[C@@H]3O)c(O)cc2o1"
stdout: false (0)

* * *

Property: max response; scope: individual molecules
Assay: qHTS Assay for Lipid Storage Modulators (AID 1519)
Conditions: Drosophila S3 cells, BODIPY lipid droplet/cell ratio, laser cytometry; measured here: lipid channel max response; cells loaded with oleic acid
Protocol: NIH Molecular Libraries Probe Production Centers Network [MLPCN] NIH Chemical Genomics Center [NCGC] Assay Submitter (PI): Beller, Mathias; Max-Planck-Institut fur Biophysikalische Chemie […] We dispensed 4 uL of cells at 1.25 x 10^6 cells/mL into LoBase Aurora COC 1,536-well plates (black walled, clear bottom) with a bottle-valve solenoid-based dispenser (Aurora) to obtain 5,000 cells/well. […] The ratio of the total intensity in PMT channel 1 over total intensity of channel 3 was also calculated. […]
Inconclusive results are not listed.
Numeric answer only, unit % assumed.

- molecule: "COc1ccc2c(c1)[C@@]13CCCCC1[C@@H](C2)N(C)CC3 (stereo partly specified)"
  max response / %: 15.7
- molecule: "CC1(C)C(O)CC(=O)[C@]2(C)C1CC(=O)[C@]1(C)C2CC[C@@]2(C)C(c3ccoc3)OC(=O)C3O[C@@]321 (stereo partly specified)"
  max response / %: 14.7

stdin: Fill in the blank: the reported max response of CC1=C2C3OC(=O)C(C)C3CC[C@@]2(C)C=CC1=O (stereo partly specified) is ____.
stdout: 16.8

stdin: Lookup "CC(C)CN1CC2(CCN(C(=O)Oc3ccccc3)CC2)C1"
stdout: 1.27

stdin: Lookup "CCN1C[C@]2(C)CC[C@H](OC)[C@@]34[C@@H]2[C@H](OC(C)=O)[C@]2(OCO[C@@]25C[C@@H](OC)[C@@H]2C[C@@]3(O)[C@H]5[C@@H]2OC)[C@H]14"
stdout: 0.99

stdin: Lookup "C[C@H]1CC[C@@]2(NC1)O[C@@H]1C[C@H]3[C@@H]4CC[C@@H]5C[C@@H](O)CC[C@@]5(C)[C@@H]4CC[C@]3(C)[C@@H]1[C@@H]2C"
stdout: -2.87

stdin: Lookup "c1csc(CN2CC[C@@]3(CCCNC3)C2)n1"
stdout: 1.97

* * *

Test: MultiTox-Fluor Cytotoxicity Assay - LYMP1-002 - Dead Cells (AID 960);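 also: cells exposed to compound for 16 h at 37 °C; 0% = DMSO and 100% = tetraoctylammonium bromide; nearly all actives have a fitted effect of over 60% in size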
Conditions: LYMP1-002 lymphoblastoid cells, dead-cell protease fluorescence; series mostly up to 46.1 µM
From the text: NIH Chemical Genomics Center [NCGC] NIH Molecular Libraries Screening Centers Network [MLSCN] National Institutes of Environmental Health Sciences [NIEHS] National Toxicology Program [NTP] We have developed a 1536-well cell-based assay for quantitative high throughput screening (qHTS) against a number of cell lines to determine in vitro cytotoxicity of small molecules. […] 8. Detection; dead-cell fluorescence (Ex/Em=485/520); EnVision plate reader […]
Inconclusive results are not listed. Activity calls are given as the source filed them. The call rests on the fitted dose curve; in most records, active means well fitted cell-killing curve with a large enough effect; inconclusive means small, poorly fitted or top-dose-only effect, or effect the other way; inactive means no such curve, though single readings can be large or run the other way.
Classes to choose from: yes (1) (active), no (0) (inactive)

Answered cases to consult:
- compound: "O=C=NC1CCCCC1"
  assigned category: "no (0)"
- compound: "CCc1cccc(CC)c1N(COC)C(=O)CCl"
  assigned category: "no (0)"

stdin: Please state the recorded outcome for this compound: "CCNc1nc(Cl)nc(NC(C)C)n1"
stdout: no (0)

* * *

system: CP329; test: qHTS profiling for inhibitors of Plasmodium falciparum proliferation (AID 504749); also: nearly all actives have a fitted effect of over 60% in size; details: P. falciparum in erythrocytes, SYBR Green DNA, 72 h; series mostly up to 28.7 µM
Results filed as inconclusive are left out. Active and inactive are the calls of the source. The call rests on the fitted dose curve; in most records, active means well fitted inhibition curve with a large enough effect; inconclusive means small, poorly fitted or top-dose-only effect; inactive means flat fitted curve, though single readings scatter.
Classes to choose from: active, inactive

Answered cases to consult:
- molecule: "CN[C@@H](C)[C@H]1CC[C@@H](N)[C@@H](O[C@@H]2[C@@H](O)[C@@H](O[C@H]3OC[C@@](C)(O)[C@@H](NC)[C@@H]3O)[C@H](N)C[C@@H]2N)O1 (tested in a mixture with another compound)"
  assigned category: "inactive"
- molecule: "CC1=C2[C@@H]3OC(=O)[C@@H](C)[C@@H]3CC[C@]2(C)C=CC1=O"
  assigned category: "inactive"
- molecule: "CC[C@@H]1[C@@H]2C[C@H]3[C@H]4N(C)c5ccccc5[C@@]45C[C@@H]([C@@H]2[C@@H]5O)N3[C@H]1O"
  assigned category: "inactive"
- molecule: "CC(C)(O)C1C2OC(=O)C1[C@]1(O)C[C@H]3O[C@]34C(=O)O[C@H]2[C@]14C (stereo not given in full) (tested in a mixture with another compound)"
  assigned category: "inactive"
- molecule: "CCCC[N+]1(C)C2CC(OC(=O)C(CO)c3ccccc3)CC1C1OC12 (stereo not given)"
  assigned category: "inactive"
- molecule: "C#CCN(C)[C@@H](C)Cc1ccccc1"
  assigned category: "inactive"
- molecule: "C[C@]12CC[C@H](OS(=O)(=O)O)CC1=CCC1C2CC[C@]2(C)C(=O)CC[C@@H]12 (stereo not given in full)"
  assigned category: "inactive"
- molecule: "CNc1ccc(C(=O)CC(O)CCC(C)C2OC(=O)CC(O)CC(=O)CC(O)CC(O)CC(O)CC(O)CC3(O)CC(O)C(C(=O)OC)C(CC(O[C@@H]4OC(C)C(O)C(N)C4O)/C=C/C=C/C=C/C=C/C=C/C=C/C=C/C2C)O3)cc1 (stereo not given in full)"
  assigned category: "inactive"
- molecule: "CN(C)[C@@H]1C(=O)C(C(N)=O)=C(O)[C@]2(O)C(=O)C3=C(O)c4c(O)ccc(Cl)c4[C@](C)(O)[C@H]3C[C@@H]12"
  assigned category: "inactive"
- molecule: "NCC[C@H](O)C(=O)N[C@H]1C[C@@H](N)[C@@H](O[C@H]2O[C@@H](CN)[C@@H](O)[C@@H](O)[C@@H]2N)[C@@H](O[C@H]2O[C@@H](CO)[C@@H](O)[C@@H]2O)[C@@H]1O"
  assigned category: "inactive"

stdin: Please state the recorded outcome for this molecule: "N[C@H]1C[C@H]1c1ccccc1"
stdout: inactive

stdin: Lookup COc1cc2c(cc1OC)[C@@]13CCN4CC5=CCOC6CC(=O)N2C1[C@H]6[C@@H]5C[C@@H]43 (stereo not given in full)
stdout: inactive

stdin: Lookup ClC1=C(Cl)C2(Cl)C3C4CC(C5OC45)C3C1(Cl)C2(Cl)Cl (stereo not given)
stdout: inactive

stdin: Lookup "C[C@H](N)[C@@H](O)c1ccccc1"
stdout: inactive

stdin: Lookup CNC(C)[C@@H](O)c1ccc(O)cc1 (stereo not given in full)
stdout: inactive
